# tgt: recombinant human LTA4 hydrolase (rhLTA4H) (Homo sapiens, UniProt P09960)
# Construct: made in house; host or cells: Spodoptera frugiperda (Sf-9) cells, baculovirus (pFastBac1)
# Sequence (P09960 1-611): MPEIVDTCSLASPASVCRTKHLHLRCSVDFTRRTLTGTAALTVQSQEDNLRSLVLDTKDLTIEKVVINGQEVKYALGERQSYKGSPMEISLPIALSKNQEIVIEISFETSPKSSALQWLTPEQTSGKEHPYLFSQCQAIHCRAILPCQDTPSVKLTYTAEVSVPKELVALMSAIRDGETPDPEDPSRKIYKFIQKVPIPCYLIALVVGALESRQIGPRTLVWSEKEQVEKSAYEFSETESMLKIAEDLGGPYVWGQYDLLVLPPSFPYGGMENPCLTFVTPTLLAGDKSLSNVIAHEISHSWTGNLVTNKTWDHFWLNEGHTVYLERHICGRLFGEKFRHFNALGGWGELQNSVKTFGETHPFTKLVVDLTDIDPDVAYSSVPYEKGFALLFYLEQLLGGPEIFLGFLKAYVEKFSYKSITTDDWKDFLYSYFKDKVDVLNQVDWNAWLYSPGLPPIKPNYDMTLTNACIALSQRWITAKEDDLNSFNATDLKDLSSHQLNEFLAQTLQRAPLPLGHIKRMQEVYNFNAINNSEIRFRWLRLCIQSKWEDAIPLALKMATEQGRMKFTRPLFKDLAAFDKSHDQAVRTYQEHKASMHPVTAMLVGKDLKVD
# procedure.summary: Recombinant human LTA4 hydrolase assay for LTA4 hydrolase inhibitor activity
# Format: biochemical
# condition.info: rhLTA4H, LTB4 by immunoassay; single determination or average of two or more; mark after value = form tested: ′ free base, ″ hydrochloride, ^ formate; read-out: IC50
quantity: IC50 (nM)

[[record]]
compound = "NC(=O)C1CCN(Cc2c[nH]c3cc(Oc4nc5ccccc5s4)ccc23)CC1 [Example 21]"
measured_value = 5


P: CC(=O)N(C1CC1)C1CCN(Cc2coc3cc(Oc4nc5ncccc5s4)ccc23)CC1 [Example 322]
Q: O=C1Cc2cc(Cl)ccc2N1Cc1coc2cc(Oc3nc4ncccc4s3)ccc12 [Example 401]
Prompt line: When the recorded IC50 values are compared, which is smaller: that of P or that of Q ? # reply format: chosen label
Response line: P
(P: 6 nM, Q: 1020 nM)

Attribution: patent US8399465B2
